# assayed.target: T1, AAV9 (adeno-associated virus 9)
# T1 construct: also called adeno-associated virus serotype 9
# method.summary: SPR, AAV amine-coupled to CM5 chip;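 also: nanobodies flowed as analyte at seven concentrations spanning 1–100 nM over immobilized AAV (500–800 RU), kinetic constants derived by fitting the binding curves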
pKd: −log10 of the molar value.
Let's look at some binders and their measured pKd.
readout.type: pKd

• A4-084 (VHH) VHH: VQLQESGGGLVQPGGSLKLSCAASGSRFSLNTMGWYRQAPRKQREFVAAVTRGGNTNYGDFVKGRFTISRDNAKNTVYLQMNSLRPEDTAVYYCHVDELRESSWTTSNLWGQGTQVTVSS = 8.64
• A4-082 (VHH) VHH: VQLQESGGGLVQPGGSLRLSCAASGSRFSLNTMGWYRQAPGKQRELVATVTRGGSTKYADFVKGRFTISRDNAKNTVYLQMNSLRPEDTAVYYCHVDELRESGWTTSNLWGQGTQVTVSS = 6.91
• A4-061 (VHH) VHH: VQLQESGGGLVQPGGSLRLSCAASGSRFSLNTMGWYRQAPGKQRELVATVTRGGSTNYANSVKGRFTISRDNAKNTVYLQMNSLRPEDTAVYYCHVDEVRQSTWTTSNLWGQGTQVTVSS = 6.56
• A4-068 (VHH) VHH: VQLQESGGGLVQTGGSLRLSCAASGRAFSLNTMGWYRQAPGKWRELVATVTRGGSTNYAGSVKGRFTISRDNAKNTVYLQMNNLRPEDTAVYYCHVDEVRESSWTTSNLWGQGTQVTVSS = 7.50
